What CC50 at 4 days was measured for each of the following?
EXPERIMENT: Compound cytotoxicity, XTT-based colorimetric assay
Assay type: cell-based
PARTICULARS: human; uninfected MT2 cells, day 4, XTT; read-out: CC50

Entry under test: C[C@@H]1CN(c2ccc3c(=O)n(-c4ccc(Cl)c5c(NS(C)(=O)=O)nn(CC(F)(F)F)c45)c([C@H](Cc4cc(F)cc(F)c4)NC(=O)Cn4nc(C5CC5)cc4C(F)F)nc3c2)C[C@H](C)O1 (atropisomer, axis not shown; (P)) . Its CC50 at 4 days was > 500 nM

The molecule C[C@@H]1CN(c2ccc3c(=O)n(-c4ccc(Cl)c5c(NS(C)(=O)=O)nn(CC(F)F)c45)c([C@H](Cc4cc(F)cc(F)c4)NC(=O)Cn4ccc(C(C)(C)C)n4)nc3c2)C[C@H](C)O1 (atropisomer, axis not shown; (P)) showed CC50 at 4 days equal to > 500 nM

Reported CC50 at 4 days for Cn1nc(NS(C)(=O)=O)c2c(Cl)ccc(-n3c([C@H](Cc4cc(F)cc(F)c4)NC(=O)Cn4nc(C(F)F)c5c4C(F)(F)[C@@H]4C[C@H]54)nc4cc(N5CC6(COC6)C5)ccc4c3=O)c21 (atropisomer, axis not shown; (P)) was > 500 nM

Value of CC50 at 4 days reported for the molecule O=C(Cn1nc(C(F)F)cc1C1CC1)N[C@@H](Cc1cc(F)cc(F)c1)c1nc2cc(N3CCCCC3)ccc2c(=O)n1-c1ccc(Cl)c2c(NS(=O)(=O)C3CC3)nn(CC(F)F)c12 (atropisomer, axis not shown; (P)) is > 1000 nM

---

EXPERIMENT: Compound cytotoxicity, XTT-based colorimetric assay
Type: cell-based
PARTICULARS: human
VALUE KIND: CC50 at 4 days

// recorded CC50 at 4 days for Cn1nc(NS(C)(=O)=O)c2c(Cl)ccc(-n3c([C@H](Cc4cc(F)cc(F)c4)NC(=O)Cn4nc(C(F)F)c5c4C(F)(F)[C@@H]4C[C@H]54)nc4cc(N5C6COCC5COC6)ccc4c3=O)c21 : > 500 nM

The compound identified as Cn1nc(NS(C)(=O)=O)c2c(Cl)ccc(-n3c([C@H](Cc4cc(F)cc(F)c4)NC(=O)Cn4nc(C(F)F)c5c4C(F)(F)[C@@H]4C[C@H]54)nc4cc(N5C6CCC5COC6)ccc4c3=O)c21 registered its CC50 at 4 days at > 500 nM

---

So I've got a bunch of molecules here, and I need their CC50 at 4 days values.
EXPERIMENT: Compound cytotoxicity, XTT-based colorimetric assay
Assay type: cell-based
PARTICULARS: human; uninfected MT2 cells, day 4, XTT; read-out: CC50

# CC50 at 4 days of C[C@@H]1CN(c2ccc3c(=O)n(-c4ccc(Cl)c5c(NS(C)(=O)=O)nn(CC(F)(F)F)c45)c([C@H](Cc4cc(F)cc(F)c4)NC(=O)Cn4nc(C(F)(F)F)c5c4C(F)(F)[C@@H]4C[C@H]54)nc3c2)C[C@H](C)O1 (atropisomer, axis not shown; (P)) = > 0.5 µM

For reference, reported CC50 at 4 days for C[C@@H]1CN(c2ccc3c(=O)n(-c4ccc(Cl)c5c(NS(=O)(=O)C6CC6)nn(CC(F)F)c45)c([C@H](Cc4cc(F)cc(F)c4)NC(=O)Cn4nc(C(F)F)cc4C(F)F)nc3c2)C[C@H](C)O1 (atropisomer, axis not shown; (P)) stands at > 1 µM

Reported CC50 at 4 days ( C[C@@H]1CN(c2ccc3c(=O)n(-c4ccc(Cl)c5c(NS(C)(=O)=O)nn(CC(F)(F)F)c45)c([C@H](Cc4cc(F)cc(F)c4)NC(=O)Cn4nc(C(F)F)cc4C4CC4)nc3c2)C[C@H](C)O1 (atropisomer, axis not shown; (P)) ) = > 0.5 µM

Entry Cn1nc(NS(C)(=O)=O)c2c(Cl)ccc(-n3c([C@H](Cc4cc(F)cc(F)c4)NC(=O)Cn4nc(C(F)F)c5c4C(F)(F)[C@@H]4C[C@H]54)nc4cc(N5CCCCC5)ccc4c3=O)c21 (atropisomer, axis not shown; (P)) — recorded CC50 at 4 days = > 1 µM

Briefly, CC50 at 4 days measured for C[C@@H]1CN(c2ccc3c(=O)n(-c4ccc(Cl)c5c(NS(C)(=O)=O)nn(C)c45)c([C@H](Cc4cc(F)cc(F)c4)NC(=O)Cn4nc(C(F)F)c5c4C(F)(F)[C@@H]4C[C@H]54)nc3c2)C[C@H](C)O1 (atropisomer, axis not shown; (P)) : > 10 µM

Given item Cn1nc(NS(C)(=O)=O)c2c(Cl)ccc(-n3c([C@H](Cc4cc(F)cc(F)c4)NC(=O)Cn4nc(C(F)F)c5c4C(F)(F)[C@@H]4C[C@H]54)nc4cc(N5CCCC5)ccc4c3=O)c21 (atropisomer, axis not shown; (P)) , the value recorded as its CC50 at 4 days is > 1 µM

Sample C[C@@H]1CN(c2ccc3c(=O)n(-c4ccc(Cl)c5c(NS(=O)(=O)C6CC6)nn(CC(F)F)c45)c([C@H](Cc4cc(F)cc(F)c4)NC(=O)Cn4nc(C(F)F)c5c4C(F)(F)[C@@H]4C[C@H]54)nc3c2)C[C@H](C)O1 (atropisomer, axis not shown; (P)) ; CC50 at 4 days observed: > 0.5 µM

Entry C[C@@H]1CN(c2ccc3c(=O)n(-c4ccc(Cl)c5c(NS(C)(=O)=O)nn(C)c45)c([C@H](Cc4cc(F)cc(F)c4)NC(=O)Cc4cn(C5CC5)c5ccccc45)nc3c2)C[C@H](C)O1 (atropisomer, axis not shown; (P)) ; CC50 at 4 days = > 0.5 µM

---

What CC50 at 4 days was measured for each of the following?
EXPERIMENT: Compound cytotoxicity, XTT-based colorimetric assay
Format: cell-based
PARTICULARS: human; uninfected MT2 cells, day 4, XTT; read-out: CC50
Method: Compound cytotoxicity and the corresponding CC50 values were determined using the same protocol as described in the antiviral assay except that uninfected cells were used. Cytotoxicity was assessed on day 4 in uninfected MT2 cells by using a XTT (2,3-bis[2-Methoxy-4-nitro-5-sulfophenyl]-2H-tetrazolium-5-carboxyanilide inner salt)-based colorimetric assay (Sigma-Aldrich, St Louis, Mo.).

Entry under test: Cn1nc(NS(C)(=O)=O)c2c(Cl)ccc(-n3c([C@H](Cc4cc(F)cc(F)c4)NC(=O)Cn4nc(C(F)F)c5c4C(F)(F)[C@@H]4C[C@H]54)nc4cc(N5CCC(S(C)(=O)=O)CC5)ccc4c3=O)c21 (atropisomer, axis not shown; (P)) . Its CC50 at 4 days was > 500 nM

Value of measured CC50 at 4 days for the entry Cn1nc(NS(C)(=O)=O)c2c(Cl)ccc(-n3c([C@H](Cc4cc(F)cc(F)c4)NC(=O)Cn4nc(C(F)F)c5c4C(F)(F)[C@@H]4C[C@H]54)nc4cc(N5CC6CCC(C5)O6)ccc4c3=O)c21 : > 500 nM

Form field CC50 at 4 days, entry C[C@@H]1CN(c2ccc3c(=O)n(-c4ccc(Cl)c5c(NS(=O)(=O)C6CC6)nn(CC(F)(F)F)c45)c([C@H](Cc4cc(F)cc(F)c4)NC(=O)Cn4nc(C(F)(F)F)c5c4C(F)(F)[C@@H]4C[C@H]54)nc3c2)C[C@H](C)O1 (atropisomer, axis not shown; (P)) : > 500 nM

Value of CC50 at 4 days reported for the compound Cn1nc(NS(C)(=O)=O)c2c(Cl)ccc(-n3c([C@H](Cc4cc(F)cc(F)c4)NC(=O)Cn4nc(C(F)F)c5c4C(F)(F)[C@@H]4C[C@H]54)nc4cc(N5CCC[C@H]5CO)ccc4c3=O)c21 (atropisomer, axis not shown; (P)) is > 10000 nM

---

EXPERIMENT: Compound cytotoxicity, XTT-based colorimetric assay
Format: cell-based
PARTICULARS: human; uninfected MT2 cells, day 4, XTT; read-out: CC50
VALUE KIND: CC50 at 4 days

The compound listed as C[C@@H]1CN(c2ccc3c(=O)n(-c4ccc(Cl)c5c(NS(C)(=O)=O)nn(CC(F)F)c45)c([C@H](Cc4cc(F)cc(F)c4)NC(=O)Cn4ccc(C5CCC5)n4)nc3c2)C[C@H](C)O1 (atropisomer, axis not shown; (P)) shows CC50 at 4 days equal to > 500 nM

The value of CC50 at 4 days measured for the compound C[C@@H]1CN(c2ccc3c(=O)n(-c4ccc(Cl)c5c(NS(C)(=O)=O)nn(CC(F)F)c45)c([C@H](Cc4cc(F)cc(F)c4)NC(=O)Cn4nc(C(F)F)cc4C4CC4)nc3c2)C[C@H](C)O1 turned out to be > 500 nM

Measured CC50 at 4 days, C[C@@H]1CN(c2ccc3c(=O)n(-c4ccc(Cl)c5c(NS(C)(=O)=O)nn(CC(F)F)c45)c([C@H](Cc4cc(F)cc(F)c4)NC(=O)Cc4cn(C5CC5)c5ccccc45)nc3c2)C[C@H](C)O1 : > 500 nM
